system: Staphylococcus aureus; test: Effective dose required to inhibit Staphylococcus aureus intraperitoneal (IP) infection model; assay type: functional
Recorded ED50 values for a group of compounds are listed next.
Numbers only here, please. The scale is mg/kg.

smiles_representation	ED50 / mg/kg
CC[C@H]1OC(=O)[C@H](C)[C@H]2OC3(CCN(C(=O)c4ccoc4)CC3)O[C@](C)(C[C@@H](C)CN[C@H](C)[C@@H](O)[C@]1(C)O)[C@H](O[C@@H]1O[C@H](C)C[C@H](N(C)C)[C@H]1O)[C@H]2C	11

Shifting focus to the compound that follows.
q: Which ED50 value is on record for `CC[C@H]1OC(=O)[C@H](C)[C@H]2OC3(CCN(C(=O)c4cccnc4)CC3)O[C@](C)(C[C@@H](C)CN[C@H](C)[C@@H](O)[C@]1(C)O)[C@H](O[C@@H]1O[C@H](C)C[C@H](N(C)C)[C@H]1O)[C@H]2C` ?
a: 6.4
